# Tested on: SNB-75 CNS
# RUN_DESCRIPTION: NCI-60 one-dose screen, 48 h
# PROTOCOL_CONDITIONS: 10 µM unless noted
About 83,000 compounds went through this panel and 20% of them were active in at least one assay; those are over-represented in the sample as a whole. Calls of active or inactive are those of the source. Rule for the calls: active = growth percent below 10; inactive = the rest.
Permitted responses: yes (1) for active, no (0) for inactive

compound="COc1cc(/C=C2\\CCC/C(=C\\c3ccc(OCC4CO4)c(OC)c3)C2=O)ccc1OCC1CO1 (stereo unspecified)" label="no (0)"

*Q* Outcome logged for O=C(CCc1nnc2sc(Cc3ccccc3Cl)nn12)c1nc2ccccc2[nH]1 in this assay:
*A* no (0)

*Q* Outcome logged for CCOC(=O)C1=C(COCCN)NC(C)=C(C(=O)OC)C1c1ccccc1Cl (stereo unspecified) in this assay:
*A* no (0)

*Q* Outcome logged for O=C(C(Br)Br)C(Br)C(Br)c1ccccc1 (stereo unspecified) in this assay:
*A* no (0)

*Q* Outcome logged for Nc1c2ccccc2nc2ccccc12 (tested in a mixture with another compound) in this assay:
*A* no (0)

*Q* Outcome logged for CC(C)(C)c1cc(O)c(O)c(C(C)(C)C)c1 in this assay:
*A* no (0)

*Q* Outcome logged for O=C(Nc1ccccc1Cl)c1cnc2ccc(C3CCNCC3)cn12 in this assay:
*A* yes (1)

*Q* Outcome logged for C[n+]1ccc(C#N)c2ccccc21 in this assay:
*A* no (0)

*Q* Outcome logged for COc1cc2c(-c3nc4cc(Cl)c(F)cc4s3)cc(=O)oc2c(C)c1OC in this assay:
*A* yes (1)

*Q* Outcome logged for CCOC(=O)c1c2c(c(C)n1Cc1ccc(OC)cc1)-c1nc(N)ncc1CC2 in this assay:
*A* no (0)

*Q* Outcome logged for S=C(c1ccccc1)N1CCN(c2cccc(Cl)c2)CC1 in this assay:
*A* no (0)

---

The entries below come with measured growth values attached.
# Tested on: SN12C renal
# RUN_DESCRIPTION: NCI-60 one-dose screen, 48 h (100 = growth as untreated, 0 = no growth, -100 = all killed)
# PROTOCOL_CONDITIONS: 10 µM unless noted
The panel holds about 83,000 compounds, 20% with a hit somewhere; the sample as a whole holds those more often.
Kindly provide the numeric value in % only, without the unit symbol.

Example entries and their recorded answers appear below.
compound=O=C(NN(C(=O)c1ccccc1)c1cccs1)c1ccccc1 test_target="SN12C renal" assay_readout=growth assay_value=97.1
compound=COc1cc(OC)c2sc(-c3ccc(-n4cncc4-c4ccc(N)cc4)cc3)nc2c1 test_target="SN12C renal" assay_readout=growth assay_value=76.1
compound=CC1=CSC2=NCCN12 test_target="SN12C renal" assay_readout=growth assay_value=99.5
compound=COc1ccc(-c2c3c(nn2-c2ccc(N)cc2)CCc2cnoc2-3)cc1OC test_target="SN12C renal" assay_readout=growth assay_value=92.4
compound=O=C(c1ccccc1)c1ccccc1Cl test_target="SN12C renal" assay_readout=growth assay_value=101
compound=CCOC(=O)/C(=C/c1ccccc1)C(=O)c1ccccc1 test_target="SN12C renal" assay_readout=growth assay_value=72.6

*Q* growth lookup needed for C/C(=N\N1CC(=O)NC1=O)c1ccc([N+](=O)[O-])o1 , thanks.
*A* 102

*Q* growth lookup needed for O[C@@H]1Cc2ccc3ccccc3c2N[C@H](c2ccoc2)C1 , thanks.
*A* 103

*Q* growth lookup needed for NC(=O)c1ccccc1NC(=O)c1ccccc1Cl , thanks.
*A* 101

*Q* growth lookup needed for CC(=O)c1cc(C(=O)c2ccc3c(c2)Sc2ccccc2N3)c2c(C)cc(C)cn12 , thanks.
*A* 20.7

*Q* growth lookup needed for NNC(=O)NO , thanks.
*A* 106

*Q* growth lookup needed for CC(O)c1nc2c(c(=O)n(C)c(=O)n2C)n1C (configuration not stated) , thanks.
*A* 104

---

# Tested on: SK-MEL-28 melanoma
# RUN_DESCRIPTION: NCI-60 one-dose screen, 48 h (100 = growth as untreated, 0 = no growth, -100 = all killed)
# PROTOCOL_CONDITIONS: 10 µM unless noted
About 83,000 compounds went through this panel and 20% of them were active in at least one assay; those are over-represented in the sample as a whole.
The entries below come with measured growth values attached.
Kindly provide the numeric value in % only, without the unit symbol.

Example entries and their recorded answers appear below.
molecule=C/C(=N/N=C(N)N)c1ccc(N)cc1 assay_readout=growth u=% assay_value=110
molecule="C=CC1=C(C(=O)O)N2C(=O)[C@@H](NC(=O)/C(=N\\O)c3csc(N)n3)[C@H]2SC1 (stereo in doubt)" assay_readout=growth u=% assay_value=111
molecule=CN1C(=O)/C(=C/c2nc(-c3cccc(F)c3)n3ccccc23)c2ccccc21 assay_readout=growth u=% assay_value=89.1
molecule="O=C1Nc2ccccc2C12Nc1cc(Cl)ccc1S2 (stereo unspecified)" assay_readout=growth u=% assay_value=138
molecule="O=c1[nH]c(=O)n(C2CC(O)C(CO)O2)cc1C(F)(F)F (stereo unspecified)" assay_readout=growth u=% assay_value=75.2

*Q* growth lookup needed for Cc1cc2c(cc1C)Nc1sc(NC(=O)CN3CCN(C)CC3)nc1C(=O)N2 , thanks.
*A* 108

*Q* growth lookup needed for Cc1ccc(C(O)C2=CC(=O)c3ccccc3C2=O)cc1 (stereo unspecified) , thanks.
*A* 112

*Q* growth lookup needed for O=C(NCCc1ccccc1)C1CCC(=O)N1Cc1ccc(Br)cc1 (stereo unspecified) , thanks.
*A* 99.7

*Q* growth lookup needed for O=[N+]([O-])c1cnc(Sc2ccncn2)c([N+](=O)[O-])c1 , thanks.
*A* 98.3

*Q* growth lookup needed for S=c1[nH]nc2sc3ccccc3n12 , thanks.
*A* 114

*Q* growth lookup needed for COc1cc2c(cc1OC)C1CCN3C(=O)CCC3N1CC2 (stereo unspecified) , thanks.
*A* 110

---

# Tested on: NCI-H522 lung
# RUN_DESCRIPTION: NCI-60 one-dose screen, 48 h (100 = growth as untreated, 0 = no growth, -100 = all killed)
# PROTOCOL_CONDITIONS: 10 µM unless noted
About 83,000 compounds went through this panel and 20% of them were active in at least one assay; those are over-represented in the sample as a whole.
ASSAY_READOUT: growth (%)
Kindly provide the numeric value in % only, without the unit symbol.

*Q* growth lookup needed for O=Nc1ccc(O)c(=O)cc1 , thanks.
*A* -74.1

*Q* growth lookup needed for O=C1/C(=C/c2ccc([N+](=O)[O-])s2)Oc2ccc(Br)cc21 , thanks.
*A* -77.7

*Q* growth lookup needed for Cc1ccccc1-c1cc(Cc2ccccc2O)c(=O)[nH]n1 , thanks.
*A* 93.3

*Q* growth lookup needed for CCOC(=O)/C=C(/C)Sc1cc(O)c2ccccc2c1O , thanks.
*A* 12.7

*Q* growth lookup needed for CC/C=C\C=C/C(=O)N/C=C/CC1Cc2cccc(O)c2C(=O)O1 (stereo unspecified) , thanks.
*A* 55.2

---

# Test system: HCT-116 colon
# RUN_DESCRIPTION: NCI-60 one-dose screen, 48 h (100 = growth as untreated, 0 = no growth, -100 = all killed)
# PROTOCOL_CONDITIONS: 10 µM unless noted
Compounds without any hit were thinned out: in the full panel of roughly 83,000, 20% have a hit.
Kind request: treat 90% as inclusive, so growth at 90% or higher is Y, anything lower is N.

See these solved cases before continuing.
molecule=O=C(CCc1nnc2sc(Cc3ccccc3Cl)nn12)c1nc2ccccc2[nH]1 label=N
molecule=ClC1=C(Cl)C(=C2C(Cl)=C(Cl)C(Cl)=C2Cl)C(Cl)=C1Cl label=Y
molecule=Cc1cc(NC(=O)Nc2cccc3ccccc23)no1 label=Y
molecule=O=C(Nc1ccc(C2=NCCCN2)cc1)Nc1ccc(C2=NCCCN2)cc1 label=N

Attention now shifts to the item below.
*Q* Check this molecule for growth at or above 90%: COc1cc(C2CC(c3ccc(C)cc3)=NN2C(C)=O)ccc1Oc1ccnc2cc(Cl)ccc12 (stereo not given)
*A* N

---

# System: SK-OV-3 ovarian
# RUN_DESCRIPTION: NCI-60 one-dose screen, 48 h (100 = growth as untreated, 0 = no growth, -100 = all killed)
# PROTOCOL_CONDITIONS: 10 µM unless noted
The panel holds about 83,000 compounds, 20% with a hit somewhere; the sample as a whole holds those more often.
The entries below come with measured growth values attached.
Kindly provide the numeric value in % only, without the unit symbol.

molecule=O=[P@@]1(c2ccccc2)O[C@H](COCc2ccccc2)[C@@H](OCc2ccccc2)[C@H](OCc2ccccc2)[C@H]1NCc1ccccc1 assay_readout=growth assay_value=41.7

Consider the record given below.
*Q* growth lookup needed for O=[N+]([O-])c1ccc2c(c1)S(=O)c1cc([N+](=O)[O-])ccc1N2 , thanks.
*A* 103

---

The entries below come with measured growth values attached.
# Test system: PC-3 prostate
# RUN_DESCRIPTION: NCI-60 one-dose screen, 48 h (100 = growth as untreated, 0 = no growth, -100 = all killed)
# PROTOCOL_CONDITIONS: 10 µM unless noted
The panel holds about 83,000 compounds, 20% with a hit somewhere; the sample as a whole holds those more often. The source made the active and inactive calls. How the source made its calls: active means growth percent below 10; inactive means the rest.

Example entries and their recorded answers appear below.
compound=S=c1[nH]nc2sc3ccccc3n12 assay_readout=growth assay_value="112% (inactive)"
compound=Nc1ccccc1-c1ccc([N+](=O)[O-])cc1 assay_readout=growth assay_value="38.9% (inactive)"
compound=N#Cc1c(N)[nH]c(S)c1C#N assay_readout=growth assay_value="87.9% (inactive)"
compound=COc1ccc(-c2c(N)noc2-c2cc(OC)c3c(c2)OCCO3)cc1 assay_readout=growth assay_value="26.8% (inactive)"
compound=COc1ccc2c(c1)C(=O)c1c-2c(OCCN(C)C)nc2cc(OC)ccc12 assay_readout=growth assay_value="10.1% (inactive)"
compound="CCOC(=O)C1=C(COCCN)NC(C)=C(C(=O)OC)C1c1ccccc1Cl (configuration not stated)" assay_readout=growth assay_value="66.9% (inactive)"
compound=CCN(CC)CCOc1ccccc1-n1c(C)ccc1-c1ccccc1 assay_readout=growth assay_value="62.8% (inactive)"
compound=Cc1cc(C(=O)O)c(C)cc1C(=O)O assay_readout=growth assay_value="92.3% (inactive)"

*Q* growth lookup needed for O=C(Nc1ccc(Cl)cc1)Nc1ccc(Oc2nncc3ccccc23)cc1 , thanks.
*A* -29% (active)

*Q* growth lookup needed for COC1CC2CCC(C)C(O)(O2)C(=O)C(=O)N2CCCCC2C(=O)OC(C(C)CC2CCC(O)C(OC)C2)CC(=O)C(C)C=C(C)C(O)C(OC)C(=O)C(C)CC(C)/C=C/C=C/C=C1C (configuration not stated) , thanks.
*A* 31.3% (inactive)

*Q* growth lookup needed for Cc1cc(=O)n2n1-c1ccc(Cl)cc1NC(=O)C2 , thanks.
*A* 89.8% (inactive)

*Q* growth lookup needed for COc1ccc2c(c1)/C(=C\c1c[nH]c3ccc(F)cc13)C(=O)N2 , thanks.
*A* 84% (inactive)

*Q* growth lookup needed for Cc1ccsc1/C=C/C1=NCCCN1C , thanks.
*A* 90.5% (inactive)

*Q* growth lookup needed for Cc1scc2c1N(C(=O)CN1CCN(C)CC1)c1ccccc1NC2=O , thanks.
*A* 98% (inactive)

*Q* growth lookup needed for Nc1ccc2c(c1)/C(=N/O)c1cc([N+](=O)[O-])ccc1-2 , thanks.
*A* 45.3% (inactive)

*Q* growth lookup needed for COc1cccc(/C=C2\COc3ccc(O)c(O)c3C2=O)c1OC , thanks.
*A* 19.5% (inactive)

*Q* growth lookup needed for CCCCC(C#N)C(N)=O (configuration not stated) , thanks.
*A* 88.2% (inactive)

*Q* growth lookup needed for COc1ccc2c(c1)C(=O)c1c-2c(OCCCN(C)C)nc2cc(Br)ccc12 , thanks.
*A* 63.8% (inactive)

*Q* growth lookup needed for C[C@]12CC[C@@H]3c4ccc(O)c([N+](=O)[O-])c4CC[C@H]3[C@@H]1CC[C@@H]2NS(=O)(=O)c1ccc(C(F)(F)F)cc1 , thanks.
*A* 24.2% (inactive)

*Q* growth lookup needed for Cc1c(C(N)=O)sc2c1c(=O)n(Cc1ccccc1)c1nnc(S(=O)(=O)CC(=O)Nc3ccc(Cl)cc3)n21 , thanks.
*A* 35% (inactive)

*Q* growth lookup needed for COc1cc2c(-c3nc4cc(Cl)c(F)cc4s3)cc(=O)oc2c(C)c1OC , thanks.
*A* 19.2% (inactive)

*Q* growth lookup needed for COc1ccc2c(c1)C(=O)/C(=C/c1ccc([N+](=O)[O-])s1)O2 , thanks.
*A* -15.7% (active)
